- Assay info: Mouse PK evaluation, plasma, IV
- Measurement conditions: CD-1, mouse, in vivo, 3 mg/kg, Plasma concentration, Mouse 3, 3 mg/kg IV, CD-1 mice, 0.5 h
Experimental readout: concentration at 0.5 h (ng/mL)
One number for each entry, in ng/mL.

Please indicate concentration at 0.5 h recorded for CN(C)CCCn1c(N)nc2ccc3c(c21)CC(CN(C)C)O3 (single isomer, unassigned) [Compound E1] 71

* * *

- Assay info: Mouse PK evaluation, plasma, IV
- Measurement conditions: CD-1, mouse, in vivo, 3 mg/kg, Plasma concentration, Mouse 2, 3 mg/kg IV, CD-1 mice, 2 h
Experimental readout: concentration at 2 h (ng/mL)
Answers are plain numbers, in ng/mL.

Please indicate concentration at 2 h recorded for CN(C)CCCn1c(N)nc2ccc3c(c21)CC(CN(C)C)O3 (single isomer, unassigned) [Compound E1] 20.7
